Molecular target: Chromo domain-containing protein 1 (Saccharomyces cerevisiae (strain ATCC 204508 / S288c) (Baker's yeast)) (UniProt P32657)
Sequence (P32657 whole entry, the tested form may be a part): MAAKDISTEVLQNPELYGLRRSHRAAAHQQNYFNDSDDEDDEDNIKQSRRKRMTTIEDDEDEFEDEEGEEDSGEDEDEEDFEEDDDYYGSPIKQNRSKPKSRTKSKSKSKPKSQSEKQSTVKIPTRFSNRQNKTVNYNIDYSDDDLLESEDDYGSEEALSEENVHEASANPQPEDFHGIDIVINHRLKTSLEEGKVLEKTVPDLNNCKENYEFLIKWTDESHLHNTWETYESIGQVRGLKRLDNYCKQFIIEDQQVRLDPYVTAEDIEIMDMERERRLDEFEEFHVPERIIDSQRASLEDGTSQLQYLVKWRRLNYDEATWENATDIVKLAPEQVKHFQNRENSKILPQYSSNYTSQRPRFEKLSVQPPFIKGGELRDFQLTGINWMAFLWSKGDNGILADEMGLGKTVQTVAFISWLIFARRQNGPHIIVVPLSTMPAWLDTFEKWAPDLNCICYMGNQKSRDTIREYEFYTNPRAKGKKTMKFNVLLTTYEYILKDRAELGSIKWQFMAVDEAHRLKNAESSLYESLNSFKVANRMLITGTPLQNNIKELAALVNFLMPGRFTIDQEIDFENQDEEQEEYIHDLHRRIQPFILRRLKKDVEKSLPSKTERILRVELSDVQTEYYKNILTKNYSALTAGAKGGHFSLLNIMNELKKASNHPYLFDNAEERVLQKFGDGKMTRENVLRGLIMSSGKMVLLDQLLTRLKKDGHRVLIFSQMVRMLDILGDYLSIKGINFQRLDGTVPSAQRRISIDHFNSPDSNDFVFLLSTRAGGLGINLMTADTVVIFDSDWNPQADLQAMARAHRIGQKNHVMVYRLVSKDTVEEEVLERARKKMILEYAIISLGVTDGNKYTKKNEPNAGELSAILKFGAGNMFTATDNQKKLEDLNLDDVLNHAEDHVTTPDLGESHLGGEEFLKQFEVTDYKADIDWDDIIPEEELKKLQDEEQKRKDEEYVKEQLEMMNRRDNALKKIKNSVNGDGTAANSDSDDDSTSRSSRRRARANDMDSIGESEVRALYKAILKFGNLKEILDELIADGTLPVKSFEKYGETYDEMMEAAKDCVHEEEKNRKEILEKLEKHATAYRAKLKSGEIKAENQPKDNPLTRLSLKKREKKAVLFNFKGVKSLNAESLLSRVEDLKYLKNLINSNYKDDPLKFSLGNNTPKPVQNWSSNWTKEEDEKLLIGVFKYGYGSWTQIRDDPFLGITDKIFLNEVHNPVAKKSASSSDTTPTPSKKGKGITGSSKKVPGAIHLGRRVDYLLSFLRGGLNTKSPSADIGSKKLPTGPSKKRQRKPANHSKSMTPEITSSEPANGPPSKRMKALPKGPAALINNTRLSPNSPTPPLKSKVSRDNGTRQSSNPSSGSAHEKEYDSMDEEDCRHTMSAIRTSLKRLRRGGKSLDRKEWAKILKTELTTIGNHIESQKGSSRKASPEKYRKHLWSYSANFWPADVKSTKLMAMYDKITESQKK
Assay: ScCHD-1 Enzyme Inhibition Assay; further: in the data most compounds retested in dose-response had high values
Type: functional
Design: scale not given: direction of the effect not stated beside the values
Details: 30 µM

compound: Cn1ccnc1CN1CCN(c2ccc(C#N)cc2F)CC1
Percent Effect / %: -6.24
--
compound: CCc1cnc(CN(C(C)=O)C2CCN(CCS(C)(=O)=O)C2)o1 (centres undefined)
Percent Effect / %: -8.92
--
compound: CC(C)c1nccn1CCCNC(=O)c1ccc(-c2cncnc2)nc1
Percent Effect / %: -5.5
--
compound: COc1cccc(N2CCN(CCC(=O)NC3CCCC3)CC2)c1
Percent Effect / %: -4.62
--
compound: COCCN1C(=O)[C@]2(CC[C@@H]3CN(C(=O)NCC(C)C)C[C@@H]32)N=C1C
Percent Effect / %: -4.55
--
compound: Cc1ccc(CNC(=O)CN2CCN(CC(O)c3ccco3)CC2)cc1 (centres undefined)
Percent Effect / %: -10.3
--
compound: COc1nn(C)c2c1CCCN(C(=O)c1ccccc1)C2
Percent Effect / %: -2.72
--
compound: CCN(CC)CC1CN(CCc2ccccc2)Cc2nccn2C1 (centres undefined)
Percent Effect / %: -0.569
--
compound: CN(C)[C@@H]1CCN(C(=O)c2ccsc2)[C@H]1Cc1cnn(C)c1
Percent Effect / %: 2.12
--
compound: COCC(NC(=O)c1cc[nH]n1)c1cccc(C(F)(F)F)c1 (centres undefined)
Percent Effect / %: -5.07
--
compound: CS(=O)(=O)CCC(=O)NC1(c2cccc(Br)c2)CC1
Percent Effect / %: -3.61
--
compound: Cc1nc(CN2C[C@@H]3CN(C(=O)c4ccnnc4)C[C@@H]3C2=O)cs1
Percent Effect / %: 4.63
--
compound: Cc1ccccc1C1(CNc2nnc(C)c(C)c2C#N)CCOCC1
Percent Effect / %: -3.83
--
compound: CN(C(=O)c1ccccc1Cl)C1CCN(c2ccccn2)CC1
Percent Effect / %: -2.92
--
compound: CC(Cn1cccn1)NC(=O)Nc1ccc(N(C)C)nc1 (centres undefined)
Percent Effect / %: -1.82
--
compound: Cc1cnn(CC2CCCN2C(=O)CCCc2nc(C)no2)c1 (centres undefined)
Percent Effect / %: -6.12
--
compound: O=C(O)C1(Cc2cc(-c3cccc(F)c3)no2)CCOCC1
Percent Effect / %: -5.82
--
compound: COc1ccc(F)cc1C(C(=O)O)N1CCSCC1 (centres undefined)
Percent Effect / %: -1.27
--
compound: COc1c(CNC2CCN(c3ncccn3)CC2)c(C(C)C)nn1C
Percent Effect / %: -4.31
--
compound: O=C(Cn1cc(I)cn1)N1CCCC1
Percent Effect / %: -2.75
--
compound: CCN(CC)C(=O)c1ccc(-c2ccsc2)nc1C
Percent Effect / %: -1.47
--
compound: CCn1c(Cn2cncn2)nnc1C1CCN(Cc2ccncc2)CC1
Percent Effect / %: -2.94
--
compound: CN(Cc1ccsc1)C(=O)CN1CCCC1Cn1cccn1 (centres undefined)
Percent Effect / %: 4.97
--
compound: COc1cccc(N2CCN(CC(O)c3ccc(C)cc3)CC2)c1 (centres undefined)
Percent Effect / %: 21

---

The entries below are paired with their reported Percent Effect.
Target: Protein translocase subunit SecA (Escherichia coli (strain K12)) (UniProt P10408)
Sequence (P10408 whole entry): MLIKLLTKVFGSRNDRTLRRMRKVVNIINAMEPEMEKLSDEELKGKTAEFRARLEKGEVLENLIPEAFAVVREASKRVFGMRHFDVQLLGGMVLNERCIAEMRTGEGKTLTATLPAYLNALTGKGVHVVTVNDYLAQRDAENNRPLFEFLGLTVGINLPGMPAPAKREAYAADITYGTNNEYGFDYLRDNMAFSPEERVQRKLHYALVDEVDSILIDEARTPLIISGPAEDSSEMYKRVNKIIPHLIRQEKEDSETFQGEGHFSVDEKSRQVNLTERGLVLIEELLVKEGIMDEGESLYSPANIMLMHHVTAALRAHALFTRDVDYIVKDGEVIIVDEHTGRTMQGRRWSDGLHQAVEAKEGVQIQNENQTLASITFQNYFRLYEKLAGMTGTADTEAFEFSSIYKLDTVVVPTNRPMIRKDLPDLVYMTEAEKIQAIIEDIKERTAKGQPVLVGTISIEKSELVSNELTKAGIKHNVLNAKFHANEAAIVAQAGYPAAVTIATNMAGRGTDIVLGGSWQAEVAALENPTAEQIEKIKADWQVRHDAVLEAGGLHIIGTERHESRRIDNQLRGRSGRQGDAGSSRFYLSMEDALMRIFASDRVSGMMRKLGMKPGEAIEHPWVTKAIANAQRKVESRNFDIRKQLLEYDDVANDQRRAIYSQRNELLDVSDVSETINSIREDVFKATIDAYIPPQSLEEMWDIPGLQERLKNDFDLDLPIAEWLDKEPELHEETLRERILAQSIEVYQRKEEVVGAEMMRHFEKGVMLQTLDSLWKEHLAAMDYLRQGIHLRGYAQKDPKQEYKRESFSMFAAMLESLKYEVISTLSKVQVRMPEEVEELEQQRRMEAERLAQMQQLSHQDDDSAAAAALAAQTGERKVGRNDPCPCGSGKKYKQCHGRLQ
Experiment: Assay to Identify E. coli SecA ATPase Inhibitors
Assay type: functional
Design: scale not given: direction of the effect not stated beside the values
Settings: 30 µM
Entries with a potency or affinity are not part of this list.

compound: CN1CCOC(CNCc2cccc(OCc3ccccn3)c2)C1 (stereo unspecified)
Percent Effect: -5.11%
--
compound: CNC(=O)[C@H]1CCS(=O)(=O)[C@@H]2CN(Cc3ccc(OC)cc3)C[C@H]12
Percent Effect: 0.0608%
--
compound: CC(C)Sc1ncccc1C(=O)NCc1ccc(CS(C)(=O)=O)cc1
Percent Effect: -4.04%
--
compound: Cc1nc(CN2C(=O)COC3(CCN(Cc4nccs4)CC3)C2C)cs1 (stereo unspecified)
Percent Effect: -1.57%
--
compound: Cc1cccc(OCCC(=O)NCC(C)(C)C(N)=O)c1
Percent Effect: -3.42%
--
compound: O=C(c1ccc2[nH]ccc2c1)N1CCn2cnc(COCC3CC3)c2C1
Percent Effect: 1.11%

---

Molecular target: Tyrosyl-tRNA synthetase, putative (Trypanosoma cruzi (strain CL Brener)) (UniProt Q4DSP6)
Sequence (whole entry): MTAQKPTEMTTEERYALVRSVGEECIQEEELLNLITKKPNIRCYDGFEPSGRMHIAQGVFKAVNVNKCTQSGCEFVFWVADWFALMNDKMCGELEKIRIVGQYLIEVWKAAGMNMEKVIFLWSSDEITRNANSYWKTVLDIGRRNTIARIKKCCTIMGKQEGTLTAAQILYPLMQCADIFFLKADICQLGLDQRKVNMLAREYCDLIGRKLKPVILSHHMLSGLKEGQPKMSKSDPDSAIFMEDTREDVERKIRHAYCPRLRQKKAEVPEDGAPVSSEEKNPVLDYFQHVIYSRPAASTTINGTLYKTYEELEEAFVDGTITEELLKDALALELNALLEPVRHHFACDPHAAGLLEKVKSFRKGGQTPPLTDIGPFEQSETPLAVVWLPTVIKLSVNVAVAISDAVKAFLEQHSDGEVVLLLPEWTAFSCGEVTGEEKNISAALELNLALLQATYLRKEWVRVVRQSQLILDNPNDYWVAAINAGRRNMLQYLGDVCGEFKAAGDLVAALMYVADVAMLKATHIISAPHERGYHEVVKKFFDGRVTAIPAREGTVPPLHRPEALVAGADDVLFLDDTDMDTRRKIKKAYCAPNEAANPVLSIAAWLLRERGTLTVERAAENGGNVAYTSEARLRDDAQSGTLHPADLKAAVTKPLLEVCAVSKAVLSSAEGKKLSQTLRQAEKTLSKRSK
Assay: Trypanosoma cruzi tyrosyl tRNA synthetase (TcYRS) SOP
Format: functional
Set-up: scale not given: direction of the effect not stated beside the values
Settings: 30 µM
Quick reference for Percent Effect among some compounds
readoutName: Percent Effect (%)

compound: O=C(NCC1CCOCC1)[C@H]1C[C@@H]2CCN(Cc3ccncc3)C[C@@H]2O1
observedMeasurement: 7.5
--
compound: Cc1cc(C(=O)N[C@@H]2CCNC[C@H]2O)ccc1Cl
observedMeasurement: 4.88
--
compound: O=C1COC2(CCN(Cc3ccccn3)CC2)CN1CC1CC1
observedMeasurement: 3.85
--
compound: Cc1cccc(NS(=O)(=O)c2cc(C(=O)O)oc2C)c1Cl
observedMeasurement: 9.76
--
compound: Cc1nc(C)c2c(n1)CCN(C(=O)CC1CC1)CC2
observedMeasurement: 12.8
--
compound: CC(=O)N1CCN(CC2CCOc3ccccc3C2)CC1 (stereo unspecified)
observedMeasurement: -7.69

---

Species: Homo sapiens
Assay: To identify inhibition of the IFN signalling (Jak-Stat) pathway via expression of an eGFP reporter gene under the control of an IFN-stimulated response element (ISRE) containing MxA promoter.
Type: functional
Parameters: scale not given: direction of the effect not stated beside the values
Settings: 30 µM
Quick reference for Percent Effect among some compounds

compound: COc1ccc(CN2C[C@@H](N(C)Cc3ccco3)[C@H]3OCCC[C@H]32)cc1
Percent Effect (%): 9.72
//
compound: CC(C)NC(=O)NCCCc1cc(N)n(-c2ccccc2)n1
Percent Effect (%): 14.3
//
compound: CCS(=O)(=O)N1CCC[C@]2(C(=O)N(C)C)CN(c3ccccn3)C[C@@H]2C1
Percent Effect (%): -17
//
compound: Cc1cncc(C(=O)N2CCCC(C(=O)CCc3ccccc3)C2)c1 (stereo unspecified)
Percent Effect (%): 14.7
//
compound: COCC(NC(=O)c1cnn(C)c1)c1cccc(C(F)(F)F)c1 (stereo unspecified)
Percent Effect (%): -1.62
//
compound: O=C(NCCc1nnc2n1CCC2)NC1(c2cccc(F)c2)CC1
Percent Effect (%): 11

---

Molecular target: Protein translocase subunit SecA (Escherichia coli (strain K12)) (UniProt P10408)
Assay: Assay to Identify E. coli SecA ATPase Inhibitors
Format: functional
Parameters: scale not given: direction of the effect not stated beside the values
Conditions: 30 µM
Measured potencies and affinities stand elsewhere.

compound: N#Cc1cccc(S(=O)(=O)NC(=O)COC2CCCC2)c1
unitOfMeasurement: %
Percent Effect: -0.529
--
compound: COc1ccc(CN2C[C@H]3CC[C@](O)(c4ccc(C)cn4)[C@H]3C2)c(F)c1
unitOfMeasurement: %
Percent Effect: -5
--
compound: COc1ccc(NC(=O)C(c2cccc(F)c2)N2CCOCC2)cc1 (stereo unspecified)
unitOfMeasurement: %
Percent Effect: -1.48
--
compound: CN(C)C(=O)C1(CCCc2ccncc2)CCCN1 (stereo unspecified)
unitOfMeasurement: %
Percent Effect: -1.15
--
compound: CN1CC(C(=O)NC(C)(C)C)CC1=O (stereo unspecified)
unitOfMeasurement: %
Percent Effect: -3.04
--
compound: COc1ccc(NC(=O)NC(C)c2nc[nH]n2)cc1 (stereo unspecified)
unitOfMeasurement: %
Percent Effect: -1.78
